Reported max activation values for the following molecules.
- experimentalSystem: D(3) dopamine receptor (Homo sapiens)
- protocolSummary: qHTS of D3 Dopamine Receptor Agonist: qHTS; further: 0% is about no effect
- measurementSetup: D3R DiscoveRx beta-arrestin cells, luminescence, 90 min; hits give high values
The whole screen tested about 410,000 compounds, of which about 2,400 (0.59%) were called active. The entries come from a sample that favours actives as a whole.
Provide the reading as a plain figure in %.

N#CCSc1nc2ccc(N3CCOCC3)cc2c(=O)n1CCc1ccccc1
3.32
CC(CCc1ccc(O)cc1)NCc1ccc(Cl)cc1Cl (stereo unspecified)
91.1
O=C(CSc1nnc(Cn2cnc3ccccc32)o1)c1ccccc1
2.49
Cc1cc(C)cc(NC(=O)CSc2nc(=O)n(CCN3CCOCC3)c3c2CCC3)c1
0.821
Cn1c(=O)c2c(nc(Br)n2CCSc2nc3ccccc3o2)n(C)c1=O
4.26

Lookup: # get_value(readout='max activation', item= CCCCn1c(SCC(=O)NCC2CCCO2)nc2ccc(N3CCOCC3)cc2c1=O (stereo unspecified) )
Found: 33

Lookup: GET /values?readout=max activation&item= `Cc1ccc(C(=O)Nc2cc3c(cc2N2CCCC2)n(C)c(=O)c(=O)n3C)cc1`
Found: -5.76

Lookup: Can you share its max activation? I mean this molecule: CCC(C)[C@@H](N)C(=O)O (stereo partly specified)
Found: 1.21

Lookup: # get_value(readout='max activation', item= `CC(=O)Nc1ccc(C(=O)CSc2nnc(Cc3ccccc3)o2)cc1` )
Found: 46.1

Lookup: Param item = `CCCN(CCC)CCNC(=O)Cn1cnc2sc(C)c(S(=O)(=O)N3CCC(C)CC3)c2c1=O` ; retrieve measured max activation.
Found: -7.98

Lookup: max activation for `Cc1ccc(Cc2nc3ccccc3nc2SCC(=O)Nc2cccc(C(F)(F)F)c2)cc1` ?
Found: 4.77

###

- experimentalSystem: D(3) dopamine receptor (Homo sapiens)
- protocolSummary: qHTS of D3 Dopamine Receptor Agonist: qHTS; further: 0% is about no effect
- measurementSetup: D3R DiscoveRx beta-arrestin cells, luminescence, 90 min; hits give high values
Out of some 410,000 compounds screened, about 2,400 (0.59%) were called active. This excerpt belongs to a sample that is enriched for actives.
reportedProperty: max activation (%)
Give the value in % but do not write % after it.

Solved cases (3 shown):
Cc1onc(-c2ccc(F)cc2F)c1C(=O)Nc1cccc(C(F)(F)F)c1
-14.1
COc1cc(Cl)c(NC(=O)C(NS(=O)(=O)c2cccs2)C(C)C)c(OC)c1 (configuration not stated)
6.54
Cc1cc(C)cc(Nc2ncnc3onc(-c4ccc(F)cc4)c23)c1
9.02

Lookup: Record `Cc1oc2c(F)c(F)c(F)c(F)c2c1S(=O)(=O)Nc1cccc(C(F)(F)F)c1` : what is its max activation with D(3) dopamine receptor (Homo sapiens)?
Found: 39.8

Lookup: Hello, I am looking for reported max activation with D(3) dopamine receptor (Homo sapiens) for `COc1ccccc1NC(=O)c1oc2ccccc2c1NC(=O)C(C)C` . Could you help?
Found: 2.74

Lookup: Notebook entry, D(3) dopamine receptor (Homo sapiens) assay: max activation of `CCn1cc(C(=O)N(C)Cc2ccccc2)c(=O)c2cc(S(=O)(=O)N3CCCCCC3)ccc21` = ?
Found: 3.05

Lookup: I'm curious: which max activation was measured for C=CCSC1=C(C#N)C(c2cc(Br)c(O)c(OC)c2)CC(=O)N1 (configuration not stated) tested on D(3) dopamine receptor (Homo sapiens)?
Found: 9.82

###

- experimentalSystem: D(3) dopamine receptor (Homo sapiens) (UniProt P35462)
- Sequence (P35462 whole entry, looked up): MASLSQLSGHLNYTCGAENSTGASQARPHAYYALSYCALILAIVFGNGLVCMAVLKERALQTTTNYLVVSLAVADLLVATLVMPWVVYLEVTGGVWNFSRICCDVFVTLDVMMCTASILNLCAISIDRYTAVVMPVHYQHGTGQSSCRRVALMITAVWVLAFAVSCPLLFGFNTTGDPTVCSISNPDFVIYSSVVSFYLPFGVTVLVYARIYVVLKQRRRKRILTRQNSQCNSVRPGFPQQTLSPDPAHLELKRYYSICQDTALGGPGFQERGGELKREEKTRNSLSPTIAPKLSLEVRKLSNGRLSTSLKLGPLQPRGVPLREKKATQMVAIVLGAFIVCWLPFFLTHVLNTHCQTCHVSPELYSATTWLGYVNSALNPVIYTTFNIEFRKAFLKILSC
- protocolSummary: qHTS of D3 Dopamine Receptor Agonist: qHTS; further: 0% is about no effect
- measurementSetup: D3R DiscoveRx beta-arrestin cells, luminescence, 90 min; hits give high values
The whole screen tested about 410,000 compounds, of which about 2,400 (0.59%) were called active. The entries come from a sample that favours actives as a whole.
reportedProperty: max activation (%)
Entry rule: numbers only, all in %.

Cc1ccc(CSc2oc(-c3cccs3)nc2S(=O)(=O)c2ccc(C)cc2)cc1
6.03

Lookup: Fill in the blank: the reported max activation of `NNc1nnc(Cc2ccncc2)c2ccccc12` is ____.
Found: 4.9

Lookup: Which max activation value belongs to `Cc1ccc(S(=O)(=O)N2CCCc3cc(NS(=O)(=O)c4cc(C)ccc4C)ccc32)cc1` ?
Found: 7.92

Lookup: // query max activation value for entry `N#C/C(=C\c1cccc(F)c1)c1nc(-c2cc3c(ccc4ccccc43)oc2=O)cs1`
Found: 4.13

Lookup: What value of max activation has been recorded for this entry: `CC(=O)O[C@H]1CC[C@@]2(C)C(=CC[C@@H]3[C@@H]2CC[C@]2(C)C(c4cccnc4)=CC[C@@H]32)C1`
Found: 6.91

###

- experimentalSystem: D(3) dopamine receptor (Homo sapiens)
- protocolSummary: qHTS of D3 Dopamine Receptor Agonist: qHTS; further: 0% is about no effect
- measurementSetup: D3R DiscoveRx beta-arrestin cells, luminescence, 90 min; hits give high values
Screen size: about 410,000 compounds; about 2,400 (0.59%) were called active. This is one part of a sample in which actives are shown more often than they occur.
The reader will find reported max activation values listed item by item below.
Just the number in %, nothing appended.

Please review the entries below; each comes with its answer.
COc1cc(SC#N)ccc1N=Cc1c(C)[nH]n(-c2ccc(C)cc2)c1=O
37.3
CCOC(=O)c1ccc(NC(=O)CCS(=O)(=O)c2ccc(C)cc2)cc1
4.32
COc1cc(CNCCSc2nnnn2C)ccc1OCc1ccc(Cl)cc1Cl
-19
CCOc1ccc(NC(=O)C/C(C)=N/NC(=O)Cc2cccs2)cc1
5.68
Cc1cc(C)cc(C(=O)N(CCc2ccccc2)C2=CC3CCC(C2)N3C)c1 (configuration not stated)
-13.4
CCOc1ccccc1NC(=O)CCn1cnnn1
4.34
O=P(O)(O)OC[C@H](O)CO
-12.8
CCc1ccc(OCC(O)CN2CCN(CCO)CC2)cc1 (configuration not stated)
-6.12

Could you now look at the following compound, please?
Lookup: Value lookup for max activation; key = CC(C)c1ccccc1OCC(O)CN(CC(O)COc1cccc2ccccc12)C(C)C (configuration not stated)
Found: 13.3

###

# Lookup of reported max activation keyed by entry
- experimentalSystem: D(3) dopamine receptor (Homo sapiens)
- protocolSummary: qHTS of D3 Dopamine Receptor Agonist: qHTS; further: 0% is about no effect
- measurementSetup: D3R DiscoveRx beta-arrestin cells, luminescence, 90 min; hits give high values
About 2,400 (0.59%) of roughly 410,000 compounds were called active. The list comes from a sample in which actives are over-represented; it also holds close analogues and randomly drawn compounds.
Write the answer as a number in %, unit excluded.

Some solved entries appear below for comparison.
CSc1ncnc2c1ncn2CCCNCc1ccco1
-2.72
CSc1ncnc2c1ncn2CC(=O)C1CCC2C3CCC4=CC(=O)CCC4(C)C3CCC12C (centres undefined)
53.2
COc1ccc(-c2nc3sc(CCNS(=O)(=O)c4ccc(F)c(C)c4)c(C)n3n2)cc1
6.72

Lookup: Lab request: please report max activation under test system D(3) dopamine receptor (Homo sapiens) for `Cc1ccc(NC(=O)c2nc(S(=O)(=O)Cc3cccc(C)c3)ncc2Cl)cc1`
Found: -23.7

Lookup: Entry `CC(=O)OC[C@H]1O[C@@H](O[C@H]2[C@H](O)[C@@H](OC(=O)c3ccccc3C(=O)O)[C@H](O)O[C@@H]2COC(C)=O)[C@H](O)[C@@H](OC(=O)c2ccccc2C(=O)O)[C@@H]1O` , system D(3) dopamine receptor (Homo sapiens): what max activation was measured?
Found: 2.74

Lookup: Give D(3) dopamine receptor (Homo sapiens) max activation for `Cc1ccc2[nH]c3c(=O)n(CC(=O)NC(C)C)ncc3c2c1`
Found: 2.56

Lookup: # query: max activation | item Cc1cccc(N2CCN(C(=O)CCn3c(=O)c4cccn4c4cccnc43)CC2C)c1 (centres undefined) | system: D(3) dopamine receptor (Homo sapiens)
Found: 14.9

Lookup: Hello, I am looking for reported max activation with D(3) dopamine receptor (Homo sapiens) for COc1cc(NS(=O)(=O)c2ccc3c(c2)OCC(C(=O)N2CCCC2)O3)cc(OC)c1 (centres undefined) . Could you help?
Found: 19.5

Lookup: So what max activation did `Cc1ccc(Cl)cc1N1CCN(C(=O)c2cccn3c(=O)c4cc(Cl)ccc4nc23)CC1` get with D(3) dopamine receptor (Homo sapiens)?
Found: 1.63

###

- experimentalSystem: D(3) dopamine receptor (Homo sapiens) (UniProt P35462)
- protocolSummary: qHTS of D3 Dopamine Receptor Agonist: qHTS; further: 0% is about no effect
- measurementSetup: D3R DiscoveRx beta-arrestin cells, luminescence, 90 min; hits give high values
- Description: D3 DARs represent a very important target for the treatment of several neuropsychiatric disorders. Indeed, one of the most promising therapeutic applications for the D3 DAR is in the area of addiction and related disorders. […] Freshly passaged cells are plated in 1536 well white, solid bottom plates at a density of 1500 cells/well in 3microl of complete media. […] Following incubation, luminescence is measured on a ViewLux CCD-based luminometer reader using a 20 sec exposure time.
Among all 410,000 compounds or so, about 2,400 (0.59%) were called active. For the sample, actives were picked, then their nearest neighbours and some compounds at random.
reportedProperty: max activation (%)
Numeric answer only, unit % assumed.

Solved entries:
COc1ccccc1N1CCN(c2ncnc3onc(-c4cccc(Cl)c4)c23)CC1
7.08
CCOC(=O)c1[nH]cnc1C(=O)Nc1ccccc1C
4.49
Oc1c(C(c2ccccc2Cl)N2CCOCC2)sc2nc(-c3ccco3)nn12 (stereo unspecified)
-18
COC(=O)c1cc(NC(=O)CCc2c(C)nc3c4c(C)cc(C)nc4nn3c2C)cc(C(=O)OC)c1
-21.8

Lookup: Bench note: what max activation did `C[C@H](NC(=O)c1nc[nH]c1C(=O)N[C@@H](C)C(=O)OC(C)(C)C)C(=O)OC(C)(C)C` show?
Found: -3.39

Lookup: Which max activation reading was recorded for the compound `CCOC(=O)c1ccc(NC(=O)c2nc[nH]c2C(=O)NCc2ccccc2)cc1` ?
Found: 56.5
